Measured TGI accompanies every entry in the list below.
Tested on: M14 melanoma
Test: NCI tumour cell line growth inhibition, 48 h

These recorded examples may help you get a feel for the data.
Task: # input compound: COC(=O)C(=O)C(C(=O)C(=O)Nc1cccc(OC)c1)c1nc2ccc(Cl)cc2[nH]c1=O (stereo not drawn) ; wanted: its TGI
Result: > 100 µM

Task: Record: CC(C)(C)c1ccc(OCCOCCOc2ccc(C(C)(C)C)cc2S(N)(=O)=O)c(S(N)(=O)=O)c1
Result: > 100 µM

Task: Moving on to the next compound: Clc1ccc(C(OCn2ccnc2)c2nc3ccccc3[nH]2)c(Cl)c1 (stereo not drawn)
Result: > 100 µM

Task: Also, C/C(=C\c1ccccc1)C(O)C(=O)c1nc2ccc(Cl)cc2[nH]c1=O (stereo not drawn) please.
Result: > 100 µM

Task: O=c1oc2ccccc2c(-c2ccc(O)cc2)c1Oc1ccccc1 , same question.
Result: 32.1 µM

Task: And COC(=O)c1ccc(CCC2=CC(=O)C=CC2=O)cc1 ?
Result: 32.4 µM

Task: Next record, please: CNS(=O)(=O)NNS(=O)(=O)c1ccc(C)cc1
Result: > 100 µM

Task: Same for CCN(C(=O)N[C@@H](CC(C)C)C(=O)NCC(=O)OC)c1ccccc1
Result: > 100 µM

Task: Please answer likewise for COC(=O)c1sc(=S)sc1SCc1cccc(CSc2sc(=S)sc2C(=O)OC)c1
Result: > 100 µM

Task: Would you mind doing CCCCCNC(=O)CCCCCCCCCCCNC(=O)CCCCCCCCCCN1C=CC(=CC=C2C=CC(=O)C=C2)C=C1 as well?
Result: > 100 µM

Let us examine a further case.
Task: Bench note: what TGI did COc1cc2c(Oc3ccc(-c4cnc(Nc5ccc(F)cc5)n(C)c4=O)cc3F)ccnc2cc1OCCCN1CCOCC1 show?
Result: 1.82 µM

* * *

Tested on: EKVX NSCLC
Experiment: NCI tumour cell line growth inhibition, 48 h; in the data active = GI50 below about 0.43 µM; inactive = the rest
Your reply should match one of these outcome classes. label 1 (active), label 0 (inactive)

Task: Assay result, entry C#CCCCCCC(=O)N[C@H]1C=C[C@@H]2/C=C(C)/C=C/[C@@H](C)[C@H]([C@H](C)[C@H](O)[C@@H](C)NC(C)=O)OC(=O)/C=C/C=C(C)\C=C\[C@]2(C)C1 — outcome?
Result: label 1

Further cases:
Task: Please let me know the test result on file for O=C1c2ccccc2-c2c1c1c(O)cccc1n2Cc1ccccc1 .
Result: label 0

Task: Next entry: O=C(O)CSc1cc(NS(=O)(=O)c2ccc(Br)cc2)c2ccccc2c1O
Result: label 0

Task: Also need Cc1ccc(-c2nc([P+](c3ccccc3)(c3ccccc3)c3ccccc3)c(N3CCOCC3)o2)cc1 , thanks.
Result: label 0

* * *

Test system: A549 NSCLC
Assay: NCI tumour cell line growth inhibition, 48 h
Consider the following compounds and their measured TGI readings.

See these solved cases before continuing.
Task: What TGI value was documented for this compound, Cc1ccc2c(=O)cc(-c3cc(C)sc3C)[nH]c2n1 ?
Result: > 39.3 µM

Task: Note, next up: CC(C)(C)c1ccc(OCCOCCOc2ccc(C(C)(C)C)cc2S(N)(=O)=O)c(S(N)(=O)=O)c1
Result: > 100 µM

Task: Field entry: CCCCCC(=O)OC[n+]1cccc(-c2c(COC(=O)NC(C)C)c(COC(=O)NC(C)C)c3n2CCC3)c1
Result: > 100 µM

Task: Same question for CC[C@]12C=CCN3CC[C@@]4(c5ccc(OC)cc5N(C)[C@H]4[C@@](O)(C(=O)OC)[C@@H]1OC(=O)CCCN1CCN(CCCC(=O)O[C@@H]4[C@]5(CC)C=CCN6CC[C@@]7(c8ccc(OC)cc8N(C)[C@H]7[C@@]4(O)C(=O)OC)[C@@H]65)CC1)[C@@H]32 please.
Result: 2.95 µM

Task: Also COC(=O)C1=C(OC)C(=P2(c3ccccc3)CC(c3ccccc3)=C2c2ccccc2)C(C(=O)OC)=C1C(=O)OC (stereo not drawn) ?
Result: > 100 µM

Continuing:
Task: Returns the measured TGI for the input compound. Input: CC(=O)Nc1nc2c(=O)c3ccccc3sc2s1
Result: > 100 µM

Task: Can you handle CC(=O)Nc1ccc2c(c1)C(=O)c1ccccc1-2 next?
Result: > 100 µM

Task: Repeat for the following compound: CCOC(=O)C#Cc1c(C(=O)OCC)nnn1[C@@H]1O[C@H](COC)[C@@H](OC)[C@H]1OC
Result: 40.4 µM
